# System: NCI-H460 cells
# Method notes: NCI-H460 tumor cell cytotoxicity assay (CellTiter-Glo)
# Format: cell-based
# Protocol conditions: Homo sapiens, NCI-H460, 48 h, n = 1, read-out: H460 in vitro cytotoxicity
pIC50: −log10 of the molar value.
Label yes (1) when pIC50 >= 7; otherwise no (0).

{"Smiles input": "CCNC(=O)c1nnc(-c2cc(C(C)C)c(O)cc2O)n1-c1ccc(C(=O)NCCc2ccc(OC(=O)N(C)CCCOc3ccc4c(c3OC)N=C(NC(=O)c3cnc(N)nc3)N3CCN=C43)cc2)cc1", "Answer label": "no (0)"}
{"Smiles input": "COc1c(OCCCN2CCN(C(=O)Oc3ccc(CC(=O)N4CCC(CCn5ccc6cc(-n7c(O)nnc7-c7cc(C(C)C)c(O)cc7O)ccc65)CC4)cc3)CC2)ccc2c1N=C(NC(=O)c1cnc(N)nc1)N1CCN=C21", "Answer label": "no (0)"}
{"Smiles input": "CCNC(=O)c1nnc(-c2cc(C(C)C)c(O)cc2O)n1-c1ccc(CN2CCN(C(=O)Cc3ccc(CC(=O)N(C)CCCOc4ccc5c(c4OC)N=C(NC(=O)c4cnc(N)nc4)N4CCN=C54)cc3)CC2)cc1", "Answer label": "yes (1)"}

Has CCNC(=O)c1nnc(-c2cc(C(C)C)c(O)cc2O)n1-c1ccc(CN2CCN(C(=O)Cc3ccc(OC(=O)N4CCN(CCCOc5ccc6c(c5OC)N=C(NC(=O)c5cnc(N)nc5)N5CCN=C65)CC4)cc3)CC2)cc1 a recorded pIC50 greater than or equal to 7?
yes (1)

====

# Method notes: H460 mouse tumor PK
# Type: in vivo, mice
# Protocol conditions: mouse, in vivo, 25 mg/kg, 25 mg/kg IV; 96 h; Animal ID 2; read-out: Conjugate 38 Conc. in H460 Mouse Tumor
# Description: Conjugate and unconjugated payload accumulation at 96 and 144 h in H460 tumor-bearing mice. Conjugate 38 was dosed at 25 mg/kg intravenously.
Experimental endpoint: concentration at 96 h

# get_value(readout='concentration at 96 h', item= CCNC(=O)c1nnc(-c2cc(C(C)C)c(O)cc2O)n1-c1ccc(CN2CCN(C(=O)Cc3ccc(OC(=O)N4CCN(CCCOc5ccc6c(c5OC)N=C(NC(=O)c5cnc(N)nc5)N5CCN=C65)CC4)cc3)CC2)cc1 [Compound 38] )
7.6 µM

====

# Assayed target: topoisomerase-I (Homo sapiens)
# Sequence (P11387 whole entry): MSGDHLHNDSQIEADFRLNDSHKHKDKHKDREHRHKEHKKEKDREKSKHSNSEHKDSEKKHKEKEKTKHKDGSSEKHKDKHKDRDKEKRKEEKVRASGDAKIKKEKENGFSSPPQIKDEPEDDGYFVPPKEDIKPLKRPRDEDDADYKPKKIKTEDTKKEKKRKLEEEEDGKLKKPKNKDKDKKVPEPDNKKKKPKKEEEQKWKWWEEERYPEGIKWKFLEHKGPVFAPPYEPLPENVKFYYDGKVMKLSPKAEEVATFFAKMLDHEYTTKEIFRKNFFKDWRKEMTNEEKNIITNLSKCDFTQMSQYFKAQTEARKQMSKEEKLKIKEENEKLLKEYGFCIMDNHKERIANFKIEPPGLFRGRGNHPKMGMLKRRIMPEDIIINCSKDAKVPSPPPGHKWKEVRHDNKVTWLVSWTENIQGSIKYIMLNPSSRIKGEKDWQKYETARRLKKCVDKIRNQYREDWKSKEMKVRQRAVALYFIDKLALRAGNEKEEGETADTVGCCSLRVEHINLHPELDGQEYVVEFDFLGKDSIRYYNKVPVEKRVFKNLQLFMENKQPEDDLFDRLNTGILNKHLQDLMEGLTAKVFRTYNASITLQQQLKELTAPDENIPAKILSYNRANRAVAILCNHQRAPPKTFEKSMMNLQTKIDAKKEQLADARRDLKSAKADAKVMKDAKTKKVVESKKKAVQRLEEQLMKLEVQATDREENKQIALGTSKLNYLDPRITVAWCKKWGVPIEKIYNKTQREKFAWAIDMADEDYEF
# Method notes: DNA damage / topoisomerase activity (FIG. 9)
# Assay type: biochemical
# Protocol conditions: FIG. 9, in words

{"Molecule": "CC(C)c1cc(-c2nnc(O)n2-c2ccc3c(ccn3C)c2)c(O)cc1O [ganetespib, reference compound]", "Assayed target": "topoisomerase-I (Homo sapiens)", "DNA damage": "none"}

====

# Method notes: H460 mouse tumor PK
# Assay type: in vivo, mice
# Protocol conditions: mouse, in vivo, 25 mg/kg, 25 mg/kg IV; 144 h; Animal ID 1; read-out: Conjugate 38 Conc. in H460 Mouse Tumor
Experimental endpoint: concentration at 144 h
Lab note: write values as number then unit, every time.

# get_value(readout='concentration at 144 h', item= CCNC(=O)c1nnc(-c2cc(C(C)C)c(O)cc2O)n1-c1ccc(CN2CCN(C(=O)Cc3ccc(OC(=O)N4CCN(CCCOc5ccc6c(c5OC)N=C(NC(=O)c5cnc(N)nc5)N5CCN=C65)CC4)cc3)CC2)cc1 [Compound 38] )
840 nM

Attribution: patent US20210000966A1
